# experiment summary: gradient 5% acetonitrile 3 min, to 50% in 2 min, to 85% in 15 min, held 3 min, 100 µL/min
# setup conditions: column: Zorbax Extend-C18 2.1 x 50 mm; eluents: water / acetonitrile, 0.1% formic acid
// classify: if (RP-LC retention time < 800 s) YES else NO

compound: Cc1ccc(S(=O)(=O)Nc2ccc(-c3cn4ccc(C)nc4n3)cc2)cc1
discrete label: YES

compound: Cc1nc2ccccn2c(=O)c1Cc1nnc(SCc2cc(=O)c3cccc(C)c3[nH]2)n1C
discrete label: YES

compound: Cc1nc(C)c(C(=O)NC2CCc3nn(CC4CC4)c(=O)n3CC2)s1 (stereo not given)
discrete label: YES

compound: O=C(CSc1nnc2c3cc(-c4ccc(F)cc4)nn3ccn12)Nc1ccccc1F
discrete label: NO

---

# experiment summary: gradient 5% acetonitrile 3 min, to 50% in 2 min, to 85% in 15 min, held 3 min, 100 µL/min
# setup conditions: column: Zorbax Extend-C18 2.1 x 50 mm; eluents: water / acetonitrile, 0.1% formic acid
RP-LC retention time reference

compound: Cc1cc(NC(=O)c2cn(C)nc2S(=O)(=O)N2CCSCC2)ccc1F
unit symbol: s
RP-LC retention time: 960

compound: COc1ccc(CC(C)(O)CNC(=O)Nc2ccccc2OC)cc1 (stereo not drawn)
unit symbol: s
RP-LC retention time: 750

compound: O=C(Cn1nc(N2CCSCC2)c2ccccc2c1=O)Nc1cccc(Cl)c1
unit symbol: s
RP-LC retention time: 1010

compound: COc1ccc(OC)c(Nc2c(-c3cccc(O)c3)nc3cnccn23)c1
unit symbol: s
RP-LC retention time: 727

compound: Cc1ccc(Cl)cc1NC(=O)c1[nH]c(C)c(S(=O)(=O)N2CCCC2)c1C
unit symbol: s
RP-LC retention time: 949

compound: COc1ccccc1CNC1CCN(c2ccc(C(=O)NC3CC3)cn2)C1 (stereo not drawn)
unit symbol: s
RP-LC retention time: 552

compound: Cc1cccc(Cl)c1NC(=O)Cn1ncc2c(N3CCN(c4ccccn4)CC3)ncnc21
unit symbol: s
RP-LC retention time: 593

compound: CCOC(=O)C1C(=O)NC(SC)=C(C#N)C1c1ccccc1[N+](=O)[O-] (stereo not drawn)
unit symbol: s
RP-LC retention time: 778

compound: O=C(Cn1cccc(-c2nc(-c3ccc(Br)cc3)no2)c1=O)Nc1ccc2c(c1)OCO2
unit symbol: s
RP-LC retention time: 935

compound: COc1ccc2c(c1)OC1(C)CC2C(S(=O)(=O)c2ccc(C)c(C)c2)C(=O)N1 (stereo not drawn)
unit symbol: s
RP-LC retention time: 934

compound: Cn1c(Cn2c(=O)sc3ccccc32)nnc1SCC(=O)N1CCc2ccccc21
unit symbol: s
RP-LC retention time: 746

compound: CCOC(=O)C1CCN(C(=O)CCc2nc(-c3ccc(N4CCCC4)cc3)no2)CC1
unit symbol: s
RP-LC retention time: 1030

compound: COc1ccc2c(c1)C1(CCN(C(=O)c3cccs3)C1)C(=O)N2C (stereo not drawn)
unit symbol: s
RP-LC retention time: 738

compound: O=C(Nc1ccccc1)N1CCN(c2cnn3c(C4CC4)nnc3c2)CC1
unit symbol: s
RP-LC retention time: 625

compound: COc1cccc(CNC(=O)N2CCN(Cc3c(C)noc3C)CC2)c1
unit symbol: s
RP-LC retention time: 593

compound: CCOC(=O)C1=C(N)Oc2c(oc(CO)cc2=O)C1c1cccnc1 (stereo not drawn)
unit symbol: s
RP-LC retention time: 612

compound: COc1ccc(NC(=O)c2ccc(-c3ccsc3)nc2)cc1
unit symbol: s
RP-LC retention time: 862

compound: COc1ccc(-c2ncccc2CNS(=O)(=O)Cc2ccccc2F)cc1
unit symbol: s
RP-LC retention time: 660

---

# experiment summary: gradient 5% acetonitrile 3 min, to 50% in 2 min, to 85% in 15 min, held 3 min, 100 µL/min
# setup conditions: column: Zorbax Extend-C18 2.1 x 50 mm; eluents: water / acetonitrile, 0.1% formic acid

compound: Cc1ccc(Nc2cc(C)nc(N3CCN(C(=O)Nc4ccc(Cl)cc4)CC3)n2)cc1
RP-LC retention time, s: 908
--
compound: O=C(Cn1nc2n(c1=O)CCCC2)N1CCN(c2ccccc2)CC1
RP-LC retention time, s: 638
--
compound: O=S(=O)(c1cccs1)N1CCN(c2nc3c(F)cc(F)cc3s2)CC1
RP-LC retention time, s: 997
--
compound: CN1C2CCC1CC(NC(=O)c1nn(C)c3ccccc13)C2 (stereo unspecified)
RP-LC retention time, s: 655
--
compound: O=C1CC(c2noc(-c3ccccc3)n2)CN1Cc1ccccc1 (stereo unspecified)
RP-LC retention time, s: 642
--
compound: Cc1cccc(S(=O)(=O)N2C[C@H](c3nc(-c4cccnc4)no3)[C@@H](C)C2)c1
RP-LC retention time, s: 914

---

RP-LC retention time reference
# experiment summary: gradient 5% acetonitrile 3 min, to 50% in 2 min, to 85% in 15 min, held 3 min, 100 µL/min
# setup conditions: column: Zorbax Extend-C18 2.1 x 50 mm; eluents: water / acetonitrile, 0.1% formic acid

compound: COc1ccccc1CCNC(=O)Cn1cc(S(=O)(=O)c2ccccc2)c2ccccc21
RP-LC retention time (s): 898
//
compound: Cc1ccc(-c2cn3cc(C(=O)NC(C)c4cccnc4)ccc3n2)cc1 (centres undefined)
RP-LC retention time (s): 571
//
compound: O=C(NCc1ccc(F)cc1)Nc1cnc2c(c1)CCC2
RP-LC retention time (s): 531
//
compound: COC(=O)c1c(NC(=O)c2cc(C)no2)sc(C)c1C
RP-LC retention time (s): 1030

---

RP-LC retention time reference
# experiment summary: gradient 5% acetonitrile 3 min, to 50% in 2 min, to 85% in 15 min, held 3 min, 100 µL/min
# setup conditions: column: Zorbax Extend-C18 2.1 x 50 mm; eluents: water / acetonitrile, 0.1% formic acid
measured endpoint: RP-LC retention time

compound: CCS(=O)(=O)c1ccc2c(c1)N(Cc1nc(-c3ccc(Br)cc3)no1)C(=O)CO2
measured endpoint: RP-LC retention time
recorded value: 988 s
//
compound: CCc1cc2c(cc(C(=O)NCc3cccs3)n2C)s1
measured endpoint: RP-LC retention time
recorded value: 1010 s
//
compound: O=C1C(O)=C(S(=O)(=O)c2ccc(Cl)cc2)C(c2ccc(F)cc2)N1Cc1ccco1 (stereo not given)
measured endpoint: RP-LC retention time
recorded value: 972 s
//
compound: COc1ccccc1C(=O)NCCc1nc2cccnc2n1C(C)C
measured endpoint: RP-LC retention time
recorded value: 718 s
//
compound: O=C(NC1CCN(c2cc(-c3ccccc3)[nH]n2)C1)c1ccccc1Cl (stereo not given)
measured endpoint: RP-LC retention time
recorded value: 692 s

---

# experiment summary: gradient 5% acetonitrile 3 min, to 50% in 2 min, to 85% in 15 min, held 3 min, 100 µL/min
# setup conditions: column: Zorbax Extend-C18 2.1 x 50 mm; eluents: water / acetonitrile, 0.1% formic acid

molecule: O=C(O)Cn1ncc2ccccc2c1=O
RP-LC retention time / s: 572
--
molecule: O=C(Nc1ccc(Br)cc1)C1CCCN1S(=O)(=O)c1ccc(F)cc1 (stereo not drawn)
RP-LC retention time / s: 967
--
molecule: COc1cc([C@H]2c3cc4c(cc3[C@@H](O)[C@H](CO)[C@H]2C(=O)Nc2ccccc2)OCO4)cc(OC)c1OC
RP-LC retention time / s: 730
--
molecule: COc1cc([C@@H]2c3cc4c(cc3[C@H](O)[C@@H](CO)[C@@H]2C(=O)NCc2cccc(C(F)(F)F)c2)OCO4)cc(OC)c1OC
RP-LC retention time / s: 783
--
molecule: Cc1nc(-c2ccc3c(c2)n(CC(=O)NC2CCCCCCC2)c(=O)n3C(C)C)no1
RP-LC retention time / s: 945
--
molecule: CC(C)CNC(=O)C1CC(=O)N(c2ccc3c(c2)CCN3C(=O)C2CC2)C1 (stereo not drawn)
RP-LC retention time / s: 698
--
molecule: CCOc1ccc(-n2ccnc(NC(=O)Nc3ccc(C)c(C)c3)c2=O)cc1
RP-LC retention time / s: 1090
--
molecule: CCCN1C(=O)c2cc(S(=O)(=O)NC(C)C)ccc2Oc2cccnc21
RP-LC retention time / s: 960
--
molecule: CCCNC(=O)N1CCC(c2noc(-c3ccccn3)n2)C1 (stereo not drawn)
RP-LC retention time / s: 648
--
molecule: COc1ccc(-c2ncc3c(n2)CCN(C(=O)Nc2ccc(C)c(F)c2)C3)cc1
RP-LC retention time / s: 996
--
molecule: CCn1nc(CNC(=O)c2ccc(C#N)cc2)c2ccccc21
RP-LC retention time / s: 808
--
molecule: COc1ccc(NC(=O)N2c3ccccc3NC3=C(C(=O)CCC3)C2c2ccco2)c(OC)c1 (stereo not drawn)
RP-LC retention time / s: 816
--
molecule: CCC(CC)C(=O)N1CCN(c2nc3cccnc3n(CC)c2=O)CC1
RP-LC retention time / s: 942
